Structures can show the parent of a compound that is named as a salt.
// melting point lookup, one value per entry

Worked examples, 7 molecules total:
MOLECULE	MEASURED
O=C(N[C@H](CN1CCCC1)c1ccccc1)C1(c2ccc3c(c2)NS(=O)(=O)O3)CC1	239 to 241 °C
CN(C(=O)C1(c2ccccc2)CC1)[C@H](CN1CCCC1)c1ccccc1.Cl	216 to 217 °C
CS(=O)(=O)Oc1cccc([C@@H](CN2CCCC2)NC(=O)C2(c3ccc4oc(=O)[nH]c4c3)CC2)c1 (as salt: trifluoroacetate)	101 to 103 °C
CS(=O)(=O)Nc1cccc(C2(C(=O)N[C@H](CN3CCCC3)c3cccc(OCC(=O)O)c3)CC2)c1	160 to 162 °C
CS(=O)(=O)Nc1ccc(C2(C(=O)N[C@H](CN3CCCC3)c3ccccc3)CC2)cc1	165 to 168 °C
O=C(N[C@H](CN1CC[C@H](O)C1)c1cccc([N+](=O)[O-])c1)C1(c2ccc3oc(=O)[nH]c3c2)CC1	224 to 226 °C
CS(=O)(=O)Nc1cccc(C2(C(=O)N[C@H](CN3CCCC3)c3ccccc3)CC2)c1	146 to 148 °C

Q: // lookup melting point for `CN(C(=O)C1(c2cnc3ccccc3c2)CC1)[C@H](CN1CCCC1)c1ccccc1.Cl`
Ans: 223 to 225 °C

---

Structures can show the parent of a compound that is named as a salt.
// melting point lookup, one value per entry

Worked examples, 3 molecules total:
MOLECULE	melting point
O=C(O)c1ccc(C2(C(=O)N[C@H](CN3CCCC3)c3ccccc3)CC2)cc1	134 to 136 °C
O=CNc1cc(C2(C(=O)N[C@H](CN3CCCC3)c3ccccc3)CC2)ccc1O (stereo in doubt)	175 to 177 °C
O=C(O)COc1ccc(C2(C(=O)N[C@H](CN3CCCC3)c3ccccc3)CC2)cc1 (stereo in doubt)	94 to 95 °C

Q: // lookup melting point for O=C(N[C@H](CN1CCCC1)c1ccccc1)C1(c2cccc(-c3nnn[nH]3)c2)CC1 (stereo in doubt)
Ans: 137 to 139 °C

Q: // lookup melting point for `CN(C)S(=O)(=O)c1ccccc1C1(C(=O)N[C@H](CN2CCCC2)c2ccccc2)CC1`
Ans: 80 to 81 °C

Q: // lookup melting point for O=C(N[C@H](CN1CCCC1)c1ccccc1)C1(c2ccc3oc(=O)[nH]c3c2)CC1 (stereo in doubt)
Ans: 142 to 144 °C

Q: // lookup melting point for `O=C(N[C@H](CN1CCCC1)c1ccccc1)C1(c2ccc3oncc3c2)CC1`
Ans: 129 to 130 °C

Q: // lookup melting point for Nc1cccc([C@@H](CN2CCCC2)NC(=O)C2(c3ccc4oc(=O)[nH]c4c3)CC2)c1 (stereo in doubt)
Ans: 95 to 97 °C

Q: // lookup melting point for CS(=O)(=O)Nc1cccc(C2(C(=O)N[C@H](CN3CC[C@H](N)C3)c3ccccc3)CC2)c1 (as salt: trifluoroacetate)
Ans: 119.6 to 119.8 °C

Q: // lookup melting point for `CS(=O)(=O)c1ccc(C2(C(=O)N[C@H](CN3CCCC3)c3ccccc3)CC2)cc1`
Ans: 150 to 152 °C

Q: // lookup melting point for `Cl.O=C(N[C@H](CN1CCCC1)c1ccccc1)C1(c2cccc(O)c2)CC1`
Ans: 80 to 82 °C

Q: // lookup melting point for `CN(C(=O)C1(c2ccccc2)CCCC1)[C@H](CN1CCCC1)c1ccccc1.Cl`
Ans: 220 to 221 °C

Q: // lookup melting point for NC(=O)c1ccc(C2(C(=O)N[C@H](CN3CCCC3)c3ccccc3)CC2)cc1 (stereo in doubt)
Ans: 201 °C

Q: // lookup melting point for O=C(N[C@H](CN1CCCC1)c1ccccc1)C1(c2ccc3[nH]ncc3c2)CC1 (stereo in doubt)
Ans: 82 to 83 °C

Q: // lookup melting point for N#Cc1cccc(COc2cccc([C@@H](CN3CCCC3)NC(=O)C3(c4ccc5oc(=O)[nH]c5c4)CC3)c2)c1 (stereo in doubt)
Ans: 129 to 130 °C

Q: // lookup melting point for `COc1cccc([C@@H](CN2CCCC2)NC(=O)C2(c3ccc4oc(=O)[nH]c4c3)CC2)c1`
Ans: 92 to 94 °C

Q: // lookup melting point for `O=C(N[C@H](CN1CCCC1)c1ccccc1)C1(c2ccc3c(c2)NS(=O)(=O)C3)CC1`
Ans: 138 to 140 °C

Q: // lookup melting point for COc1ccc(C2(C(=O)N[C@H](CN3CCCC3)c3ccccc3)CC2)cc1NS(C)(=O)=O (stereo in doubt)
Ans: 103 to 105 °C

Q: // lookup melting point for `CS(=O)(=O)Nc1cccc(C2(C(=O)N[C@@H](CN3CCCC3)c3cccc(O)c3)CC2)c1`
Ans: 103 to 105 °C

Q: // lookup melting point for Cc1noc2ccc(C3(C(=O)N[C@H](CN4CCCC4)c4ccccc4)CC3)cc12 (stereo in doubt)
Ans: 158.5 to 158.8 °C

Q: // lookup melting point for `Cl.O=C(O)Cn1c(=O)oc2ccc(C3(C(=O)N[C@H](CN4CCCC4)c4ccccc4)CC3)cc21`
Ans: 166 to 168 °C
